experimental_system: human recombinant dopamine D2 receptor (Homo sapiens (Human))
Sequence (P14416 whole entry): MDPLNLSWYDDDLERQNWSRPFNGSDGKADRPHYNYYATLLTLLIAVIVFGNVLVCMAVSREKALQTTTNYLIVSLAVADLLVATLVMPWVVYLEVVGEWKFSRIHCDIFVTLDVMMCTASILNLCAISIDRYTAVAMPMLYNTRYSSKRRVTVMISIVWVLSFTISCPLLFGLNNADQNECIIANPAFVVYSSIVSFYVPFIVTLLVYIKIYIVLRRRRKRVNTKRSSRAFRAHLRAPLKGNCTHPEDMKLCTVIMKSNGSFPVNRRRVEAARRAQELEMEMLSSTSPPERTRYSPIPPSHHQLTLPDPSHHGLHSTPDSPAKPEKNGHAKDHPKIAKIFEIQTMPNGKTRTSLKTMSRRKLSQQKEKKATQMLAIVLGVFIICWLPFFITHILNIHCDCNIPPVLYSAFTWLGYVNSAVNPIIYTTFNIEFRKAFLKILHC
protocol_details: Test of binding inhibition for dopamine D2 receptor ([3H]-Methylspiperone SPA)
experimental_context: Jump-In HEK cell membranes, 1.2 nM [3H]-Methylspiperone, 120 min at 25° C.; read-out: hD2_Ki
Method: (Experimental Conditions) Cell membranes: Jump-In HEK cell membranes expressing human recombinant dopamine D2 receptor (2 μg/well) Non-specific ligand: (final concentration) 10 μM Butaclamol [(+)-Butaclamol Hydrochloride, D033, Sigma] SPA beads solution: SPA beads [WGA PVT SPA Scintillation Beads, RPNQ0001 (500 mg), RPNQ0060 (2 g), PerkinElmer] (0.2 mg/well) Incubation time and temperature: 120 min at 25° C. […]
attribute_measured: Ki (nM)
One number for each entry, in nM.

- compound: "Cc1ncc(CC(=O)N[C@H]2CC[C@H](CCN3CCc4nc(OCCC(F)(F)F)sc4CC3)CC2)o1 [Example I-102]"
  numeric_value: 670
- compound: "Cc1nnc(CC(=O)N[C@H]2CC[C@](F)(CCN3CCc4nc(OCC(C)(F)F)sc4CC3)CC2)s1 [Example I-073]"
  numeric_value: 450
- compound: "Cc1ncc(/C=C/C(=O)N[C@H]2CC[C@H](CCN3CCc4ccc(OCC(F)F)nc4CC3)CC2)cn1 [Example I-098]"
  numeric_value: 350
- compound: "Cc1ncc(OCC(=O)N[C@H]2CC[C@](F)(CCN3CCc4nc(OCC(C)(F)F)sc4CC3)CC2)cn1 [Example I-044]"
  numeric_value: 610
- compound: "O=C(N[C@H]1CC[C@H](CCN2CCc3nc(OC4CC(F)(F)C4)sc3CC2)CC1)c1cccnc1C(F)F [Example I-168]"
  numeric_value: 1000

Hey, quick one: what's Ki for each of these?
1. Cn1cc(OCC(=O)N[C@H]2CC[C@H](CCN3CCc4ccc(OCC(F)F)nc4CC3)CC2)cn1 [Example I-096]
2. Cc1ncccc1C(=O)N[C@H]1CC[C@](F)(CCN2CCc3nc(OCC(C)(F)F)sc3CC2)CC1 [Example I-042]
3. Cc1nc(CC(=O)N[C@H]2CC[C@](F)(CCN3CCc4nc(OCC(C)(F)F)sc4CC3)CC2)no1 [Example I-013]
4. Cc1cc(CC(=O)N[C@H]2CC[C@H](CCN3CCc4nc(OCC(C)(F)F)sc4CC3)CC2)on1 [Example I-052]
5. Cn1cc2c(C(=O)NN3CCC(F)(CCN4CCc5sc(OCC(F)(F)F)nc5C4)CC3)cccc2n1 [Example I-028]
6. Cc1cc(CC(=O)N[C@H]2CC[C@H](CCN3CCc4ccc(OCC(F)F)nc4CC3)CC2)no1 [Example I-094]
7. Cn1cc2c(C(=O)N[C@H]3CC[C@H](CCN4CCc5ccc(OCC(C)(C)F)nc5CC4)CC3)cccc2n1 [Example I-003]

1: 570; 2: 1000; 3: 920; 4: 1700; 5: 640; 6: 910; 7: 780

Please state Ki for every compound in the list that follows.
1. CC[C@@H](C)Oc1ccc2c(n1)CCN(CC[C@H]1CC[C@H](NC(=O)Cc3cnn(C)n3)CC1)CC2 [Example I-111]
2. Cc1nnc(CC(=O)N[C@H]2CC[C@](F)(CCN3CCc4nc(OCC(C)(F)F)sc4CC3)CC2)o1 [Example I-014]
3. Cc1ncccc1C(=O)N[C@H]1CC[C@H](CCN2CCc3nc(OCCC(F)(F)F)sc3CC2)CC1 [Example I-099]
4. Cn1ncc(CC(=O)N[C@H]2CC[C@](F)(CCN3CCc4ccc(OCC(F)F)nc4CC3)CC2)n1 [Example I-031]
5. C[C@@H](Oc1ccc2c(n1)CCN(CC[C@H]1CC[C@H](NC(=O)Cc3cnn(C)n3)CC1)CC2)C(F)(F)F [Example I-128]
6. COC(CN1CCc2ccc(OCC(F)(F)F)nc2CC1)[C@H]1CC[C@H](NC(=O)Cc2cnc(C)o2)CC1 (single isomer, unassigned) [Example I-045]
7. Cc1nnc(CC(=O)N[C@H]2CC[C@](F)(CCN3CCc4ccc(OCC(C)(F)F)nc4CC3)CC2)s1 [Example I-018]

[1600, 980, 1600, 800, 510, 1700, 190]

Provide the reported Ki of each entry below, same order.
1. Cn1cc(/C=C/C(=O)N[C@H]2CC[C@](F)(CCN3CCc4nc(OCC(C)(F)F)sc4CC3)CC2)cn1 [Example I-074]
2. Cc1nnc(CC(=O)N[C@H]2CC[C@](F)(CCN3CCc4nc(OCC(F)(F)C(F)F)sc4CC3)CC2)o1 [III-8]
3. CN1Cc2c(C(=O)N[C@H]3CC[C@H](CCN4CCc5sc(OC6CC(F)(F)C6)nc5C4)CC3)cccc2C1=O [Example I-001]

1: 63; 2: 480; 3: 290

* * *

experimental_system: human recombinant dopamine D3 receptor (Homo sapiens (Human))
Sequence (P35462 whole entry): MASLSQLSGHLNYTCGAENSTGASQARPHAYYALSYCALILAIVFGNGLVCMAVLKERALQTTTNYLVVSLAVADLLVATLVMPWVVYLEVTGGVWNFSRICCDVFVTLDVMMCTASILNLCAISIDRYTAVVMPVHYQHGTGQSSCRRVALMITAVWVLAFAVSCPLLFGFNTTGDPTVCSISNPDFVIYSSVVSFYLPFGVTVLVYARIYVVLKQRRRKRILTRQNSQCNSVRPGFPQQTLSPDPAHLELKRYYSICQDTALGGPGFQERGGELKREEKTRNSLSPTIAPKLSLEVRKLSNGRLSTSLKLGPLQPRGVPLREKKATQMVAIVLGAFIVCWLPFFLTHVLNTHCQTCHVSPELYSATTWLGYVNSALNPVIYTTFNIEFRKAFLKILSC
protocol_details: Test of binding inhibition for dopamine D3 receptor ([3H]-Methylspiperone SPA)
experimental_context: Jump-In HEK cell membranes, 2 nM [3H]-Methylspiperone, 120 min at 25° C.; read-out: hD3_Ki
Threshold-based label: Ki under 0.2 nM gives YES, Ki not under 0.2 nM gives NO.

Please determine if Cn1cc(OCC(=O)N[C@H]2CC[C@H](CCN3CCc4ccc(OCC(F)F)nc4CC3)CC2)cn1 is below 0.2 nM in terms of Ki.
YES

API: query returns whether the compound falls strictly under 0.2 nM in Ki. Query: Cn1ncc(CC(=O)N[C@H]2CC[C@](F)(CCN3CCc4nc(OCC(F)(F)F)sc4CC3)CC2)n1
YES

Say whether its Ki is strictly beneath 0.2 nM. Entry: Cn1c(C(=O)NC23CCC(CCN4CCc5nc(OCC(F)(F)F)sc5CC4)(CC2)CC3)cccc1=O
YES

API: query returns whether the compound falls strictly under 0.2 nM in Ki. Query: Cc1nnc(CC(=O)N[C@H]2CC[C@](F)(CCN3CCc4ccc(OCC(F)F)nc4CC3)CC2)o1
NO

Consider the compound Cc1cnc(OCC(=O)N[C@H]2CC[C@](F)(CCN3CCc4nc(OCCC(F)(F)F)sc4CC3)CC2)cn1 . Is its Ki strictly less than 0.2 nM?
NO

* * *

experimental_system: human recombinant dopamine D2 receptor (Homo sapiens (Human))
protocol_details: Test of binding inhibition for dopamine D2 receptor ([3H]-Methylspiperone SPA)
experimental_context: Jump-In HEK cell membranes, 1.2 nM [3H]-Methylspiperone, 120 min at 25° C.; read-out: hD2_Ki
Give measured pKi for each item. Keep answers brief.
Numbers only, as −log10 of the molar value.

Some solved cases for reference:
- smiles_notation: "Cc1nnc(CC(=O)N[C@H]2CC[C@H](CCN3CCc4ccc(O[C@H](C)C(F)(F)F)nc4CC3)CC2)s1"
  pKi: 6.54
- smiles_notation: "C[C@@H](Oc1ccc2c(n1)CCN(CC[C@H]1CC[C@H](NC(=O)c3cccc(=O)n3C)CC1)CC2)C(F)(F)F"
  pKi: 6.52
- smiles_notation: "Cn1cc2c(C(=O)NN3CCC(CCN4CCc5ccc(OCC(F)(F)F)nc5CC4)CC3)cccc2n1"
  pKi: 6.07
- smiles_notation: "Cn1cc(CC(=O)N[C@H]2CC[C@H](CCN3CCc4nc(OCC(C)(F)F)sc4CC3)CC2)cn1"
  pKi: 6.15

I am curious: what pKi value has been reported for Cc1nnc(CC(=O)N[C@H]2CC[C@](F)(CCN3CCc4ccc(OCC(F)F)nc4CC3)CC2)o1 ?
6.09

* * *

experimental_system: human recombinant dopamine D2 receptor (Homo sapiens (Human))
protocol_details: Test of binding inhibition for dopamine D2 receptor ([3H]-Methylspiperone SPA)
experimental_context: Jump-In HEK cell membranes, 1.2 nM [3H]-Methylspiperone, 120 min at 25° C.; read-out: hD2_Ki
Could you mark each record true if its Ki falls strictly under 700 nM, and false if it equals or exceeds it?

The examples below pair each entry with its known result.
- compound: "Cn1cc(CC(=O)N[C@H]2CC[C@H](CCN3CCc4nc(OCCC(F)(F)F)sc4CC3)CC2)cn1"
  answer_label: "false"
- compound: "Cn1cc(CC(=O)N[C@H]2CC[C@H](CCN3CCc4ccc(OC5CCC5)nc4CC3)CC2)cn1"
  answer_label: "false"
- compound: "Cc1nnc(CC(=O)N[C@H]2CC[C@H](CCN3CCc4nc(O[C@@H](C)C(F)(F)F)sc4CC3)CC2)o1"
  answer_label: "false"
- compound: "O=C(N[C@H]1CC[C@H](CCN2CCc3nc(OCC(F)(F)F)sc3CC2)CC1)c1cccnc1C(F)F"
  answer_label: "true"
- compound: "Cc1ncc(CC(=O)NC2CC3CCC(C2)N3CCN2CCc3sc(OCC(F)(F)F)nc3C2)s1 (single isomer, unassigned)"
  answer_label: "true"
- compound: "CC(Oc1ccc2c(n1)CCN(CC[C@H]1CC[C@H](NC(=O)c3cccc4nn(C)cc34)CC1)CC2)C(F)F (single isomer, unassigned) [Example I-123]"
  answer_label: "true"
- compound: "Cc1nc(CC(=O)N[C@H]2CC[C@](F)(CCN3CCc4nc(OCCC(F)(F)F)sc4CC3)CC2)no1"
  answer_label: "false"
- compound: "CC(Oc1nc2c(s1)CCN(CC[C@H]1CC[C@H](NC(=O)c3cccc4nn(C)cc34)CC1)CC2)C(F)F (single isomer, unassigned) [Example I-119]"
  answer_label: "false"
- compound: "Cc1ncc(/C=C/C(=O)N[C@H]2CC[C@H](CCN3CCc4nc(OC5CC(F)(F)C5)sc4CC3)CC2)cn1"
  answer_label: "true"
- compound: "Cn1cc(CC(=O)N[C@H]2CC[C@](F)(CCN3CCc4ccc(OCC(F)F)nc4CC3)CC2)cn1"
  answer_label: "false"

For this compound, is Ki lower than 700 nM? Cc1cnc(CC(=O)N[C@H]2CC[C@](F)(CCN3CCc4ccc(OCC(F)F)nc4CC3)CC2)o1
false

Report whether reported Ki is lower than 700 nM (strictly) for Cn1ncc(CC(=O)N[C@H]2CC[C@H](CCN3CCc4nc(OC5CC(F)(F)C5)sc4CC3)CC2)n1
false

Strictly below 700 nM in Ki? CC[C@@H](C)Oc1ccc2c(n1)CCN(CC[C@H]1CC[C@H](NC(=O)c3cccc4nn(C)cc34)CC1)CC2
false
